// data source = ChEMBL document CHEMBL1201862

- System: SF-268
- MEASUREMENT NOTES: NCI tumour cell line growth inhibition, 48 h
Active and inactive are the calls of the source. Rule as the data show it: active = GI50 up to about 1.1 µM and inactive = higher.
I'd appreciate it if you could supply GI50 values for the items below.

Provide measured GI50 on SF-268 for CNC(=S)NNC(=O)c1c(C)nc2sccn12 please. > 100 µM (inactive)

Provide measured GI50 on SF-268 for N#Cc1c(N)n(-c2nc3ccccc3s2)c(=O)c2cc([N+](=O)[O-])ccc12 please. 15 µM (inactive)

Provide measured GI50 on SF-268 for CC[C@@]12N=C(N(C)C)C[C@]1(O)ON=C2C please. > 100 µM (inactive)

Provide measured GI50 on SF-268 for CC1=C(C(=O)Nc2ccccc2)C(c2cc(Cl)cc(Cl)c2)C(C(=O)Nc2ccccc2)=C(C)N1 please. 9.79 µM (inactive)

Provide measured GI50 on SF-268 for CC1=CC(=O)N2[C@H](OC[C@@H]2C(C)C)O1 please. > 100 µM (inactive)

Provide measured GI50 on SF-268 for CC(=O)Oc1ccc(/C=C/C(=O)NCCOC(=O)/C=C/c2ccc(OC(C)=O)c(OC(C)=O)c2)cc1OC(C)=O please. 20 µM (inactive)

Provide measured GI50 on SF-268 for C=CC(=O)N1C/C(=C\c2ccccc2)C(=O)/C(=C/c2ccccc2)C1 please. 1.97 µM (inactive)

Provide measured GI50 on SF-268 for CC(=O)OC(CC(C)C)P1(=O)N(CC(C)(C)C)[C@@H]2CCCC[C@H]2N1CC(C)(C)C (stereo not given in full) please. 15.1 µM (inactive)

Provide measured GI50 on SF-268 for CCN(CC)C(=S)SS(=O)(=O)c1ccc(C)cc1 please. 55.2 µM (inactive)

Provide measured GI50 on SF-268 for O=C(O)CCC(NC(=O)c1ccc(Nc2nc3cc(C(F)(F)F)ccc3nc2-c2ccccc2)cc1)C(=O)O (stereo not given) please. > 100 µM (inactive)

----------
- Test system: SK-MEL-2
- MEASUREMENT NOTES: NCI tumour cell line growth inhibition, 48 h
The source made the active and inactive calls. Cut-off read from the data, not from the text of the source: active = GI50 up to about 1.1 µM and inactive = higher.
METRIC: GI50

Determine its reported GI50: CC1=C(C(=O)Nc2ccccc2)C(c2cc(Cl)cc(Cl)c2)C(C(=O)Nc2ccccc2)=C(C)N1 12.1 µM (inactive)

Determine its reported GI50: O=C(OCC1CO1)c1cccs1 (stereo not given) > 100 µM (inactive)

Determine its reported GI50: OC(Cc1cccnc1)(c1ccccc1)c1ccccc1 > 100 µM (inactive)

Determine its reported GI50: COC(=O)[C@@]12C3=NO[C@]1(C(=O)OC)C(O[Si](C)(C)C(C)(C)C)[C@H]1OC(C)(C)O[C@H]1[C@@H]2C(OCc1ccccc1)CC3 (stereo not given in full) 28.8 µM (inactive)

Determine its reported GI50: NNC(=O)/C(NC(=O)c1ccccc1)=C(\N)c1ccc(Cl)cc1 > 100 µM (inactive)

----------
- Tested on: NCI-H522
- MEASUREMENT NOTES: NCI tumour cell line growth inhibition, 48 h
The source made the active and inactive calls. Rule as the data show it: active = GI50 up to about 1.1 µM and inactive = higher.
Use one of these outcomes when replying: T for active, F for inactive

# outcome recorded in this test, key = O=C1C2C=CC(C2)C(c2ccc(O)cc2)N1O (configuration not stated) F

# outcome recorded in this test, key = CC(C)(C)OC(=O)Nc1nnc(S(N)(=O)=O)s1 F

# outcome recorded in this test, key = Nc1ccc2nc3ccc(=O)cc-3n(-c3ccccc3)c2c1 F

# outcome recorded in this test, key = Cc1cc(C)n(CN(Cn2nc(C)cc2C)c2ccc(N(Cn3nc(C)cc3C)Cn3nc(C)cc3C)cc2)n1 F

# outcome recorded in this test, key = CCCC(CC)c1cc(O)c(O)cc1C(CC)CCC (configuration not stated) F

# outcome recorded in this test, key = C=C1C(=O)OC2C3C(=C)[C@@H](OC(C)=O)CC3C(C)=CC(OC(=O)C(C)(OC(C)=O)C(C)OC(C)=O)[C@@H]12 (some centres not stated) F

# outcome recorded in this test, key = O=C(O)c1ccc(OCc2nc3cc(C(F)(F)F)ccc3nc2-c2ccccc2)cc1 F

# outcome recorded in this test, key = CCC1CN2CCc3c([nH]c4ccccc34)[C@@](C(=O)OC)(c3cc4c(cc3OC)N(C)C3C(O)(C(=O)OC)C(C(=O)OC)C5(CC)C=CCN6CCC43C65)C[C@@H](C2)[C@@H]1C(C)(C)C (some centres not stated) T

# outcome recorded in this test, key = OC[C@]1(n2nc3ccccc3n2)OC[C@@H]1c1ccccc1 F

# outcome recorded in this test, key = CCOc1ccccc1/C=C1\NC(=O)N(/C=C2\C(=O)Oc3ccccc3C2=O)C1=O F

# outcome recorded in this test, key = O=c1[nH]nc(Cc2ccc(Cl)cc2)n1O F

# outcome recorded in this test, key = CSC1=Nc2ccccc2N=C(c2ccccc2)C1 F

# outcome recorded in this test, key = Cc1ccc(S(=O)(=O)NCCN(CCNS(=O)(=O)c2ccc(C)cc2)S(=O)(=O)c2ccc(C)cc2)cc1 F

# outcome recorded in this test, key = COc1nc(=O)n(C2CC(N=[N+]=[N-])C(CO)O2)cc1C (configuration not stated) F

# outcome recorded in this test, key = OC(Cc1cccnc1)(c1ccccc1)c1ccccc1 F

# outcome recorded in this test, key = CNc1nc(=S)[nH]c2sc3c(c12)CCCC3 F

# outcome recorded in this test, key = CC1(CF)SCc2nc3ccccc3n21 (configuration not stated) F

# outcome recorded in this test, key = CC(=O)OC(CC(C)C)P1(=O)N(CC(C)(C)C)[C@@H]2CCCC[C@H]2N1CC(C)(C)C (some centres not stated) F

# outcome recorded in this test, key = CC(=O)C1C(=O)C(=O)N(c2cccc([N+](=O)[O-])c2)C1=O (configuration not stated) F

# outcome recorded in this test, key = CCCCn1c(C)c2c(c1C)C(=O)N(CCN1CCN(c3ccccc3Cl)CC1)C2=O F

# outcome recorded in this test, key = Cc1cc(OCc2nnc3n2N=C(c2cc(F)c(Cl)cc2Cl)/C(=C/c2ccc(Cl)cc2)S3)ccc1Cl F

# outcome recorded in this test, key = COc1ccc(-c2nc(N)n(C)c2SSc2c(-c3ccc(OC)cc3)nc(N)n2C)cc1 F
